In this section we review reported pIC50 values for a set of compounds.
target: wild type NTRK1 enzyme (Homo sapiens); construct: purchased BPS Bioscience 40280; test: NTRK1 Wild Type Assay at 1 mM ATP; type: biochemical; details: 1 mM ATP; read-out: Enz NTRK1 IC50
pIC50: −log10 of the molar value.
Measured Parameter: pIC50

>>> measured_value("O=C(c1n[nH]c2ncnc(NC3COCC(O)C3O)c12)N1CC(F)CC1c1cc(F)cc(Cl)c1 (stereo not drawn)")
"> 8.00"
>>> measured_value("O=C(c1n[nH]c2ncnc(NC3CCOCC3O)c12)N1CC(F)CC1c1cc(F)cc(F)c1 (stereo not drawn)")
"> 8.00"
>>> measured_value("CN(Cc1cccc(F)c1F)C(=O)c1n[nH]c2ncnc(N[C@@H]3CC[C@@H](O)[C@H]3O)c12")
"7.00 to 8.00"
>>> measured_value("COc1c(F)cc(F)cc1[C@H]1C[C@H](F)CN1C(=O)c1n[nH]c2ncnc(N[C@@H]3COC[C@@H](O)[C@H]3O)c12")
"> 8.00"
>>> measured_value("O=C(c1n[nH]c2ncnc(NC3COCC(O)C3O)c12)N1CC(F)CC1c1cccc(F)c1 (stereo not drawn)")
"7.00 to 8.00"
>>> measured_value("COc1ccc(F)cc1CNC(=O)c1n[nH]c2ncnc(N[C@@H]3COCC[C@H]3O)c12")
"7.00 to 8.00"
>>> measured_value("O=C(NCc1cc(F)ccc1F)c1n[nH]c2ncnc(NC3CC(F)CC3O)c12 (stereo not drawn) [Compound 15]")
"6.00 to 7.00"
>>> measured_value("CN(Cc1cc(F)cnc1Cl)C(=O)c1n[nH]c2ncnc(N[C@H]3[C@H](O)[C@H](O)[C@@H]4C[C@@H]43)c12")
"> 8.00"
>>> measured_value("N#Cc1cc(F)cc([C@H]2C[C@H](F)CN2C(=O)c2n[nH]c3ncnc(N[C@H]4[C@H](O)[C@H](O)[C@@H]5C[C@@H]54)c23)c1")
"> 8.00"
>>> measured_value("O=C(NCc1cc(F)ccc1F)c1n[nH]c2ncnc(NC3CCC(O)C3O)c12 (stereo not drawn) [Compound 10]")
"6.00 to 7.00"
>>> measured_value("O=C(NCc1cc(F)cc(F)c1F)c1n[nH]c2ncnc(N[C@@H]3COCC[C@H]3O)c12")
"7.00 to 8.00"
>>> measured_value("CC(c1cc(F)ccc1F)N(C)C(=O)c1n[nH]c2ncnc(NC3COCC(O)C3O)c12 (stereo not drawn)")
"> 8.00"
>>> measured_value("O=C(c1n[nH]c2ncnc(NC3CC(F)CC3O)c12)N1CC(F)CC1c1cc(F)cnc1Cl (stereo not drawn)")
"7.00 to 8.00"
>>> measured_value("O=C(c1n[nH]c2ncnc(N[C@@H]3C[C@@H](C(F)F)C[C@H]3O)c12)N1C[C@@H](F)C[C@@H]1c1cc(F)ccc1F")
"> 8.00"
>>> measured_value("O=C(c1n[nH]c2ncnc(NC3CCCC(O)C3O)c12)N1CC(F)CC1c1cc(F)ccc1Cl (stereo not drawn)")
"> 8.00"

###

In this section we review reported pIC50 values for a set of molecules.
molecular target: wild type NTRK1 enzyme (Homo sapiens); construct: purchased BPS Bioscience 40280; experiment: NTRK1 Wild Type Assay at 1 mM ATP; assay type: biochemical; conditions: 1 mM ATP; read-out: Enz NTRK1 IC50
pIC50: −log10 of the molar value.
Measured Parameter: pIC50

>>> measured_value("COc1ncc(F)cc1[C@H]1C[C@H](F)CN1C(=O)c1n[nH]c2ncnc(N[C@@H]3CCOC[C@H]3O)c12 [Compound 190]")
"> 8.00"
>>> measured_value("O=C(c1n[nH]c2ncnc(N[C@H]3[C@H](O)[C@H](O)[C@@H]4C[C@@H]43)c12)N1C[C@@H](F)C[C@@H]1c1cc(F)cnc1F [Compound 216]")
"> 8.00"
>>> measured_value("CN(Cc1cc(F)cnc1Cl)C(=O)c1n[nH]c2ncnc(N[C@@H]3CCC[C@@H](O)[C@H]3O)c12 [Compound 161]")
"7.00 to 8.00"
>>> measured_value("COc1ccc(F)cc1CNC(=O)c1n[nH]c2ncnc(N[C@@H]3CC[C@@H](O)[C@H]3O)c12 [Compound 117]")
"6.00 to 7.00"
>>> measured_value("Cc1ccc(F)cc1CN(C)C(=O)c1n[nH]c2ncnc(NC3CCC(O)C3O)c12 (centres unmarked) [Compound 23]")
"> 8.00"

###

target: wild type NTRK1 enzyme (Homo sapiens); construct: purchased BPS Bioscience 40280; test: NTRK1 Wild Type Assay at 1 mM ATP; assay type: biochemical; conditions: 1 mM ATP; read-out: Enz NTRK1 IC50
pIC50: −log10 of the molar value.
Measured Parameter: pIC50

>>> measured_value("CN(Cc1cccc(F)c1)C(=O)c1n[nH]c2ncnc(N[C@@H]3CC[C@@H](O)[C@H]3O)c12 [Compound 132]")
"7.00 to 8.00"
>>> measured_value("Cc1ccc(F)cc1CNC(=O)c1n[nH]c2ncnc(N[C@@H]3CC[C@@H](O)[C@H]3O)c12 [Compound 2]")
"6.00 to 7.00"
>>> measured_value("O=C(c1n[nH]c2ncnc(N[C@@H]3CC[C@@H](O)[C@H]3O)c12)N1CCC[C@@H]1c1cc(F)ccc1F [Compound 71]")
"7.00 to 8.00"
>>> measured_value("O=C(NCc1cc(F)ccc1F)c1n[nH]c2ncnc(NC3CCC(O)C3O)c12 (stereo not shown) [Compound 9]")
"7.00 to 8.00"
>>> measured_value("O=C(c1n[nH]c2ncnc(N[C@@H]3CC[C@@H](O)[C@H]3O)c12)N1C[C@@H](F)C[C@@H]1c1cc(Cl)ccc1F [Compound 201]")
"> 8.00"
>>> measured_value("O=C(c1n[nH]c2ncnc(N[C@@H]3CCC[C@@H](O)[C@H]3O)c12)N1C[C@@H](F)C[C@@H]1c1ccccc1 [Compound 155]")
"7.00 to 8.00"
>>> measured_value("CN(Cc1cc(F)ccc1F)C(=O)c1n[nH]c2ncnc(N[C@@H]3COCC[C@H]3O)c12 [Compound 29]")
"> 8.00"
>>> measured_value("N#Cc1cc(F)cc(C2CC(F)CN2C(=O)c2n[nH]c3ncnc(NC4CCOCC4O)c23)c1 (stereo not shown) [Compound 181]")
"> 8.00"
>>> measured_value("O=C(c1n[nH]c2ncnc(N[C@H]3[C@H](O)[C@H](O)[C@@H]4C[C@@H]43)c12)N1C[C@@H](F)C[C@@H]1c1cccc(F)c1F [Compound 189]")
"> 8.00"
>>> measured_value("O=C(c1n[nH]c2ncnc(N[C@@H]3COC[C@@H](O)[C@H]3O)c12)N1C[C@@H](F)C[C@@H]1c1cc(F)cc(F)c1 [Compound 197]")
"> 8.00"

###

In this section we review reported pIC50 values for a set of compounds.
tested on: KM12 wild type colon carcinoma cell line harboring the TPM3-NTRK1 fusion protein; experiment: NTRK wild type cellular assay (CellTiter-Glo growth inhibition); type: cell-based; details: Homo sapiens, KM12, 72 h, 72 hr, CellTiter-Glo; read-out: KM12 (WT) IC50
pIC50: −log10 of the molar value.
Measured Parameter: pIC50

>>> measured_value("O=C(c1n[nH]c2ncnc(N[C@@H]3CC[C@@H](O)[C@H]3O)c12)N1C[C@@H](F)C[C@@H]1c1cc(F)ccc1OC(F)(F)F")
"> 8.00"
>>> measured_value("O=C(c1n[nH]c2ncnc(N[C@@H]3CC[C@@H](O)[C@H]3O)c12)N1C[C@@H](F)C[C@@H]1c1cc(F)ccc1OC(F)F")
"7.00 to 8.00"
>>> measured_value("CN(Cc1cc(F)cc(F)c1F)C(=O)c1n[nH]c2ncnc(N[C@@H]3COC[C@@H](O)[C@H]3O)c12")
"7.00 to 8.00"
>>> measured_value("CN(Cc1cc(F)cn(C)c1=O)C(=O)c1n[nH]c2ncnc(N[C@@H]3CCC[C@H]3O)c12")
"7.00 to 8.00"
>>> measured_value("O=C(c1n[nH]c2ncnc(N[C@@H]3CC[C@@H](O)[C@H]3O)c12)N1C[C@@H](F)C[C@@H]1c1cc(F)cc(Cl)c1")
"> 8.00"

###

target: wild type NTRK1 enzyme (Homo sapiens, UniProt P04629); construct: purchased BPS Bioscience 40280; assay: NTRK1 Wild Type Assay at 1 mM ATP; assay type: biochemical; details: 1 mM ATP; read-out: Enz NTRK1 IC50
Sequence (P04629 440-796 limits assumed): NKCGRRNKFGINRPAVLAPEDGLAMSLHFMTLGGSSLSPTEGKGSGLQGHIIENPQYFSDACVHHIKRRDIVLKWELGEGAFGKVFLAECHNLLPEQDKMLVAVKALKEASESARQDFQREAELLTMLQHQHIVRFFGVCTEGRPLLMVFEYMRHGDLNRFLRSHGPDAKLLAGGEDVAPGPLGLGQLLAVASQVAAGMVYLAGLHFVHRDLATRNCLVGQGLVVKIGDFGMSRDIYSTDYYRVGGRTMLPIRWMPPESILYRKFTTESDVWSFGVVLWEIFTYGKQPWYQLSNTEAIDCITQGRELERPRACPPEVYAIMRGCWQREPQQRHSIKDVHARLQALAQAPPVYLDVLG
Measured Parameter: IC50

>>> measured_value("CN(Cc1cc(F)cn(C)c1=O)C(=O)c1n[nH]c2ncnc(N[C@@H]3CCC[C@H]3O)c12")
"< 10 nM"
>>> measured_value("O=C(c1n[nH]c2ncnc(N[C@@H]3CC[C@@H](O)[C@H]3O)c12)N1C[C@@H](F)C[C@@H]1c1cc(F)ccc1OC(F)(F)F")
"< 10 nM"
>>> measured_value("CN(Cc1cc(Cl)ccc1C#N)C(=O)c1n[nH]c2ncnc(N[C@@H]3CC[C@@H](O)[C@H]3O)c12")
"10 to 100 nM"
>>> measured_value("CN(Cc1cc(F)cc(F)c1F)C(=O)c1n[nH]c2ncnc(N[C@@H]3COC[C@@H](O)[C@H]3O)c12")
"10 to 100 nM"
>>> measured_value("O=C(c1n[nH]c2ncnc(N[C@H]3[C@H](O)[C@H](O)[C@@H]4C[C@@H]43)c12)N1C[C@@H](F)C[C@@H]1c1cc(F)cc(F)c1")
"< 10 nM"
>>> measured_value("O=C(NCc1cc(F)ccc1F)c1n[nH]c2ncnc(NC3CC(F)(F)CC3O)c12 (stereo not drawn) [Compound 43]")
"10 to 100 nM"
>>> measured_value("CN(Cc1cccc(C#N)c1F)C(=O)c1n[nH]c2ncnc(N[C@@H]3CC[C@@H](O)[C@H]3O)c12")
"10 to 100 nM"
>>> measured_value("CN(Cc1cccc(C#N)c1)C(=O)c1n[nH]c2ncnc(N[C@@H]3CC[C@@H](O)[C@H]3O)c12")
"100 to 1000 nM"
>>> measured_value("O=C(c1n[nH]c2ncnc(NC3CCOCC3O)c12)N1CC(F)CC1c1cc(F)ccc1Br (stereo not drawn)")
"< 10 nM"
>>> measured_value("CN(Cc1cc(Cl)ccc1F)C(=O)c1n[nH]c2ncnc(N[C@@H]3CC[C@@H](O)[C@H]3O)c12")
"< 10 nM"
>>> measured_value("O=C(NCc1cc(F)ccc1F)c1n[nH]c2ncnc(NC3CC(F)(F)CC3O)c12 (stereo not drawn) [Compound 42]")
"100 to 1000 nM"
>>> measured_value("CN(Cc1cc(F)cnc1Cl)C(=O)c1n[nH]c2ncnc(NC3COCCC3O)c12 (stereo not drawn)")
"< 10 nM"
>>> measured_value("CN(Cc1cc(F)ccc1F)C(=O)c1n[nH]c2ncnc(N[C@@H]3CCC[C@H]3O)c12")
"< 10 nM"
>>> measured_value("C[C@@H](NC(=O)c1n[nH]c2ncnc(N[C@@H]3COCC[C@H]3O)c12)c1cc(F)ccc1F")
"100 to 1000 nM"
>>> measured_value("O=C(c1n[nH]c2ncnc(N[C@@H]3C=C[C@@H](O)[C@H]3O)c12)N1C[C@@H](F)C[C@@H]1c1cc(F)cc(F)c1")
"10 to 100 nM"
>>> measured_value("O=C(c1n[nH]c2ncnc(N[C@@H]3CC(F)(F)[C@@H](O)[C@H]3O)c12)N1C[C@@H](F)C[C@@H]1c1cc(F)ccc1F")
"< 10 nM"
>>> measured_value("N#CC1CC(O)C(Nc2ncnc3[nH]nc(C(=O)N4CC(F)CC4c4cc(F)cc(F)c4)c23)C1 (stereo not drawn)")
"< 10 nM"
>>> measured_value("O=C(NC(CO)c1cc(F)ccc1F)c1n[nH]c2ncnc(NC3CC(F)CC3O)c12 (stereo not drawn)")
"100 to 1000 nM"
>>> measured_value("CN(Cc1cc(F)cc(F)c1)C(=O)c1n[nH]c2ncnc(NC3CCC(O)C3O)c12 (stereo not drawn)")
"10 to 100 nM"
>>> measured_value("O=C(c1n[nH]c2ncnc(NC3CCOCC3O)c12)N1CC(F)CC1c1cc(F)ccc1OC(F)(F)F (stereo not drawn)")
"< 10 nM"
>>> measured_value("N#Cc1cc(F)cc([C@H]2C[C@H](F)CN2C(=O)c2n[nH]c3ncnc(N[C@@H]4CCCC(F)(F)[C@H]4O)c23)c1")
"< 10 nM"
>>> measured_value("O=C(c1n[nH]c2ncnc(N[C@@H]3CCC[C@@H](O)[C@H]3O)c12)N1C[C@@H](F)C[C@@H]1c1cc(Cl)ccc1F")
"< 10 nM"
>>> measured_value("O=C(c1n[nH]c2ncnc(N[C@@H]3CC[C@@H](O)[C@H]3O)c12)N1C[C@@H](F)C[C@@H]1c1cc(F)cc(Cl)c1")
"< 10 nM"
>>> measured_value("CC(NC(=O)c1n[nH]c2ncnc(NC3CCOCC3O)c12)c1cc(F)ccc1F (stereo not drawn)")
"100 to 1000 nM"
>>> measured_value("O=C(c1n[nH]c2ncnc(N[C@@H]3CN(C4COC4)C[C@H]3O)c12)N1C[C@@H](F)C[C@@H]1c1cc(F)ccc1F")
"< 10 nM"
>>> measured_value("O=C(c1n[nH]c2ncnc(N[C@@H]3C=C[C@@H](O)[C@H]3O)c12)N1C[C@@H](F)C[C@@H]1c1cc(F)ccc1F")
"< 10 nM"
>>> measured_value("O=C(NCc1cc(F)ccc1F)c1n[nH]c2ncnc(N[C@@H]3CCOC[C@H]3O)c12")
"100 to 1000 nM"
